ASSAY_OVERVIEW: Primary qHTS for small molecule stabilizers of the endoplasmic reticulum resident proteome: Secreted ER Calcium Modulated Protein (SERCaMP) assay (AID 1508630); note: % is set by controls: 0 for no effect and ±100 for the full control effect
CONDITION_LABEL: SH-SY5Y GLuc-SERCaMP (Gaussia luciferase released on ER calcium loss) secretion, thapsigargin, luminescence; series mostly up to 38.4 µM
Records with an inconclusive call do not appear. Active and inactive are the calls of the source. Calls come from the whole dose curve; as a rule, active = well fitted inhibition curve with a large enough effect; inconclusive = small, poorly fitted or top-dose-only effect; inactive = no such curve, though single readings can be large or run the other way.
PARAMETER: outcome

CCCCCCCCc1ccc(O)cc1	inactive
C[C@]12N[C@H](Cc3ccccc31)c1ccccc12	inactive
C[C@@H]1CC[C@H]2[C@@H](C)C(=O)O[C@@H]3O[C@@]4(C)CC[C@H]1[C@]32OO4	inactive
CC(C)NCC(O)c1ccc([N+](=O)[O-])cc1 (stereo unspecified)	inactive
CCCN1CCO[C@@H]2c3cc(O)ccc3OC[C@@H]21	inactive

Below: the item to evaluate.
Documented outcome of CN(C)[C@@H]1C(=O)C(C(N)=O)=C(O)[C@@]2(O)C(=O)C3=C(O)c4c(O)cccc4[C@@](C)(O)[C@H]3[C@H](O)[C@@H]12 : inactive

---

CONDITION_LABEL: Ebola virus entry assay, green channel fluorescence
Potency and affinity values are given separately. Calls of active or inactive are those of the source.
PARAMETER: outcome

CC(C)(c1ccc(O)cc1)c1ccc(O)cc1	inactive
S=C(SSC(=S)N1CCCCC1)N1CCCCC1	inactive
OCc1c[nH]c2ccccc12	inactive
Cc1c(C)c2c(c(C)c1OC(=O)c1cccnc1)CC[C@@](C)(CCC[C@H](C)CCC[C@H](C)CCCC(C)C)O2	inactive
O=C(O)c1ccccn1	inactive

Answer for every listed entry: what is its outcome? The entries follow.
1. CC1=C(/C=C/C(C)=C/C=C/C(C)=C/C(=O)O)C(C)(C)CCC1
2. O=C(O)c1cc(Oc2ccc(C(F)(F)F)cc2Cl)ccc1[N+](=O)[O-]
3. CN1Cc2cc(C(=O)N3CCC(C4CCNCC4)CC3)ccc2N[C@@H](CC(=O)O)C1=O
4. CCc1c(C)[nH]c2c1C(=O)C(CN1CCOCC1)CC2 (configuration not stated)
5. Nc1ccc([N+](=O)[O-])cc1O
6. COc1nn(CSP(=S)(OC)OC)c(=O)s1
7. O=[N+]([O-])/N=C1\NCCN1Cc1ccc(Cl)nc1

Response:
1. inactive
2. inactive
3. inactive
4. inactive
5. inactive
6. inactive
7. inactive

---

ASSAY_OVERVIEW: qHTS for Inhibitors of the Functional Ribonucleoprotein Complex (vRNP) of Lassa (LASV) Arenavirus: LASV Primary Screen - GLuc reporter signal (AID 1347082); note: nearly all actives have a fitted effect of over 60% in size
CONDITION_LABEL: LASV minigenome vRNP, Gaussia luciferase reporter; series mostly up to 57.5 µM
Results filed as inconclusive are left out. The source made the active and inactive calls. Calls come from the whole dose curve; tested in HEK293 reporter line.
Can you answer with just one of these options? 1 = active, 0 = inactive

Nc1ccc(O)c([N+](=O)[O-])c1	0
O=C(Nc1cccnc1)N1CCC(Cc2cccc(Oc3ccc(C(F)(F)F)cn3)c2)CC1	1
CS(=O)(=O)Nc1ccc([N+](=O)[O-])cc1Oc1ccccc1	0
O=c1[nH]c(-c2ccc(C(F)(F)F)cc2)nc2c1CSCC2	0

Request: Can you look up the reported call for Cc1cccc(C)c1NC(=O)c1ccc(N)cc1 for me?
Response: 0

Request: Can you look up the reported call for CS(=O)(=O)c1ccc(C(=O)Nc2ccc(Cl)c(-c3ccccn3)c2)c(Cl)c1 for me?
Response: 0

Request: Can you look up the reported call for CCO/N=C(\CC)C1=C(O)CC(c2c(C)cc(C)cc2C)CC1=O (centres undefined) for me?
Response: 0

Request: Can you look up the reported call for Cn1cncc1[C@@](N)(c1ccc(Cl)cc1)c1ccc2c(c1)c(-c1cccc(Cl)c1)cc(=O)n2C for me?
Response: 0

Request: Can you look up the reported call for Cc1cc(Nc2nc(N[C@@H](C)c3ncc(F)cn3)ncc2Cl)n[nH]1 for me?
Response: 0

Request: Can you look up the reported call for C[C@@H]1O[C@H](C[N+](C)(C)C)C[C@H]1O for me?
Response: 0

Request: Can you look up the reported call for Cc1ccc(-c2ncn(-c3ccc(Nc4nccc(-c5cccc(N6CCOCC6)c5)n4)cc3)n2)cn1 for me?
Response: 0

Request: Can you look up the reported call for CCCCCCCc1ccc(CCc2cccc(O)c2C(=O)O)cc1 for me?
Response: 0

Request: Can you look up the reported call for CCCCCCCCCCCCCC(=O)N[C@H](CO)[C@H](O)c1ccc([N+](=O)[O-])cc1 for me?
Response: 0

Request: Can you look up the reported call for CCOc1ccn(-c2ccc(F)cc2)c(=O)c1C(=O)Nc1ccc(Oc2ccnc(N)c2Cl)c(F)c1 for me?
Response: 0

Request: Can you look up the reported call for CCC(=O)N1CCN(c2ccc(-n3c(=O)ccc4cnc5ccc(-c6cnc7ccccc7c6)cc5c43)cc2C(F)(F)F)CC1 for me?
Response: 1

Request: Can you look up the reported call for Cc1cc2c(cc1C1(c3ccc(C(=O)O)cn3)CC1)C(C)(C)CCC2(C)C for me?
Response: 0

Request: Can you look up the reported call for CC=C(C)C(=O)N[C@@H](c1ccccc1)[C@@H](O)C(=O)O[C@H]1C[C@@]2(O)[C@@H](OC(=O)c3ccccc3)[C@@H]3[C@]4(OC(C)=O)CO[C@@H]4C[C@H](O)[C@@]3(C)C(=O)[C@H](OC(C)=O)C(=C1C)C2(C)C for me?
Response: 0

Request: Can you look up the reported call for CC[C@@H](C)[C@H](NC(=O)[C@H](CC1CCCCC1)NC(=O)c1ccno1)C(=O)N1CCC2(CCc3ccccc32)CC1 for me?
Response: 0

Request: Can you look up the reported call for CCCCCCCC(=O)OCC(O)CO (centres undefined) for me?
Response: 0

---

TGT: Guanidinoacetate N-methyltransferase (Homo sapiens) (UniProt Q14353)
ASSAY_OVERVIEW: Confirmatory Screen for Target Class Profiling of Small Molecule Inhibitors of Methyltransferases (AID 1745852); note: % is set by controls: 0 for no effect and ±100 for the full control effect
CONDITION_LABEL: MTase-Glo luminescence, SAH detection, recombinant enzyme; at 57.3 µM (top of the series)
PARAMETER: activity change, negative = inhibition (%)
Answers are plain numbers, in %.

Examples with answers:
CNCCc1ccc(O)c(O)c1	3.55
CC(C)NC(C)Cc1ccc(I)cc1 (stereo not given)	2.72
CCCN(CCC)[C@@H]1CCc2ccc(O)cc2C1	1.97
CNCCc1c[nH]c2ccc(O)cc12	1.54

Below: the item to evaluate.
Documented activity change, negative = inhibition of Cn1cnc(CCN)c1 : 1.75

---

ASSAY_OVERVIEW: qHTS drug screen for cell cycle checkpoint inhibitors in PARPi-resistant BRCA-mutant ovarian cancer cell lines. (AID 1963452)
CONDITION_LABEL: PEO1/OlaR viability, CellTiter-Glo luminescence, 96 h; measured here: PEO4 Z-AUC; stronger effect = lower value
Excerpt: Women's Malignancies Branch, Center for Cancer Research (CCR), National Cancer Institute (NCI), National Institutes of Health (NIH), Bethesda, MD Poly (ADP-ribose) polymerase inhibitors (PARPis) have changed the treatment paradigm in breast cancer gene (BRCA) - mutant high-grade serous ovarian carcinoma (HGSC). […] 6; Detection; Luminescence, PHERAstar (BMG Labtech) plate reader. […] 6. Luminescence readings were taken using PHERAstar (BMG Labtech). […]
Z-AUC strictly less than -0.7 = t. Otherwise f.

Answered cases to consult:
CN(C)NC(=O)CCC(=O)O	f
O=C(N[C@H]1CN2CCC1CC2)c1ccc(Cl)cc1	f
CCOC(=O)c1c(C(C#N)=CN)c2ccc(Cl)c(Cl)c2n1C	f
CCOP(=O)(OCC)C(C)NC(=O)N(CCCl)N=O (stereo not drawn)	f
CC[C@@H](C(N)=O)N1CCCC1=O	f
CCN(CC)C(=O)c1ccc(C2=CC3(CCNCC3)Oc3cccc(O)c32)cc1	f
O=C(Nc1ccncc1)C(=O)c1cn(Cc2ccc(Cl)cc2)c2ccccc12	t

Request: I wonder whether CC1=C(O)C(=O)C=C2C1=CC=C1[C@@]2(C)CC[C@@]2(C)[C@@H]3C[C@](C)(C(=O)O)CC[C@]3(C)CC[C@]12C has Z-AUC below -0.7. Can you tell?
Response: t

---

ASSAY_OVERVIEW: qHTS of pediatric cancer cell lines to identify multiple opportunities for drug repurposing: Primary screen for U-2 OS cells (AID 1347096); note: nearly all actives have a fitted effect of over 50% in size
CONDITION_LABEL: U-2 OS viability, CellTiter-Glo luminescence, 48 h; series mostly up to 46 µM
Results filed as inconclusive are left out. Activity calls are given as the source filed them. Calls follow the shape of the dose curve; as a rule, active = well fitted cell-killing curve with a large enough effect; inconclusive = small, poorly fitted or top-dose-only effect; inactive = flat fitted curve, though single readings scatter.
Can you answer with just one of these options? active, inactive

Answered cases to consult:
CC(C)[C@]12O[C@@H]1[C@@H]1O[C@]13[C@]1(O[C@H]1C[C@@H]1C4=C(CC[C@@]13C)C(=O)OC4)[C@H]2O	active
C1=C2CCCN[C@H]2[C@@H]2C[C@H]1[C@@H]1CCCCN1C2	inactive
CC(O)=C(C#N)C(=O)Nc1cc(Br)ccc1Br	inactive
Nc1ccc(Cl)cc1	inactive
CC(C)(O)C(=O)Nc1ccc([N+](=O)[O-])c(C(F)(F)F)c1	inactive
CC=C(C)C(=O)N[C@@H](c1ccccc1)[C@@H](O)C(=O)O[C@H]1C[C@@]2(O)[C@@H](OC(=O)c3ccccc3)[C@@H]3[C@]4(OC(C)=O)CO[C@@H]4C[C@H](O)[C@@]3(C)C(=O)[C@H](OC(C)=O)C(=C1C)C2(C)C	inactive
CCCCCC[C@H]1C(=O)O[C@H](C)[C@H](NC(=O)c2cccc(NC=O)c2O)C(=O)O[C@@H](C)[C@@H]1OC(=O)CC(C)C	inactive
O=[N+]([O-])c1cc([N+](=O)[O-])c2ccccc2c1	inactive
Fc1cc(Br)ccc1CBr	inactive
O=C(N[C@H]1CN2CCC1CC2)c1ccc(Cl)cc1	inactive

Request: Can you look up the reported call for O=[N+]([O-])c1c2ccccc2cc2ccccc12 for me?
Response: inactive

Request: Can you look up the reported call for C=CC(=O)NCNC(=O)C=C for me?
Response: inactive

Request: Can you look up the reported call for O=[N+]([O-])/N=C1\NCCN1Cc1ccc(Cl)nc1 for me?
Response: inactive

Request: Can you look up the reported call for O=C(O)COc1ccccc1 for me?
Response: inactive

Request: Can you look up the reported call for Nc1c(Cl)c(Cl)c(Cl)c(Cl)c1Cl for me?
Response: inactive
